Test: Microsomal stability, dog
Assay type: in vitro ADME
Conditions: dog microsomes, 0.8 µM
Could you please report measured CLint for the items listed next?

Quick note, CLint for N#Cc1cc(NC(=O)[C@H]2c3ccccc3C(=O)N(CC(F)(F)F)[C@@H]2c2cn[nH]c2)ccc1F [(+)-SJ311] landed at < 7 µl/min/mg protein

So, N#Cc1cc(NC(=O)[C@@H]2c3ccccc3C(=O)N(CC(F)(F)F)[C@H]2c2cccnc2)ccc1F [(-)-SJ733] ? Its CLint was 10.9 ± 1.5 µl/min/mg protein

The value of CLint measured for the compound N#Cc1cc(NC(=O)[C@@H]2c3ccccc3C(=O)N(CC(F)(F)F)[C@H]2c2cn[nH]c2)ccc1F [(−)-SJ311] turned out to be < 7 µl/min/mg protein

get_value(item= N#Cc1cc(NC(=O)[C@H]2c3ccccc3C(=O)N(CC(F)(F)F)[C@@H]2c2cccnc2)ccc1F [(+)-SJ733] , readout=CLint) returns < 7 µl/min/mg protein

Provenance of the data: paper PMC7893776
